FYI, the data here is from PubChem BioAssay AID624321.

solubility values, listed per item
Tested on: aqueous solubility in 1x PBS
experiment: compound solubility in 1x PBS – biophysical, set 2, ADME assay (AID 624321)
measurement setup: at 100 µM; stronger effect = higher value
Active and inactive are the calls of the source. The rule behind the calls is not given here.

{"compound structure": "Cc1ccc(NS(=O)(=O)c2ccc3c(c2)CCC(=O)N3)cc1C", "solubility": "24.4 µg/mL"}
{"compound structure": "Cc1cccc(-n2cnc3cc(C(=O)N4CCCCC4)ccc32)c1", "solubility": "26.3 µg/mL"}
{"compound structure": "COc1ccc(CSc2nc(C)cc(=O)[nH]2)cc1", "solubility": "> 26 µg/mL"}
{"compound structure": "O=C(CCNS(=O)(=O)c1cccc2nsnc12)N1CCN(c2ccccn2)CC1", "solubility": "> 43 µg/mL"}
{"compound structure": "COc1ccc(CNCc2cccc3ccccc23)cc1", "solubility": "29.6 µg/mL"}
{"compound structure": "Oc1cc(O)cc(/C=C/c2ccc(O)c(O)c2)c1", "solubility": "6.5 µg/mL (inactive)"}
